Entry source: patent US10865193B2

# tested_target: human TLR7 (Homo sapiens)
# Construct: expressed in transfected cells; host or cells: HEK293 (transient transfection)
# Sequence (Q9NYK1 27-1049): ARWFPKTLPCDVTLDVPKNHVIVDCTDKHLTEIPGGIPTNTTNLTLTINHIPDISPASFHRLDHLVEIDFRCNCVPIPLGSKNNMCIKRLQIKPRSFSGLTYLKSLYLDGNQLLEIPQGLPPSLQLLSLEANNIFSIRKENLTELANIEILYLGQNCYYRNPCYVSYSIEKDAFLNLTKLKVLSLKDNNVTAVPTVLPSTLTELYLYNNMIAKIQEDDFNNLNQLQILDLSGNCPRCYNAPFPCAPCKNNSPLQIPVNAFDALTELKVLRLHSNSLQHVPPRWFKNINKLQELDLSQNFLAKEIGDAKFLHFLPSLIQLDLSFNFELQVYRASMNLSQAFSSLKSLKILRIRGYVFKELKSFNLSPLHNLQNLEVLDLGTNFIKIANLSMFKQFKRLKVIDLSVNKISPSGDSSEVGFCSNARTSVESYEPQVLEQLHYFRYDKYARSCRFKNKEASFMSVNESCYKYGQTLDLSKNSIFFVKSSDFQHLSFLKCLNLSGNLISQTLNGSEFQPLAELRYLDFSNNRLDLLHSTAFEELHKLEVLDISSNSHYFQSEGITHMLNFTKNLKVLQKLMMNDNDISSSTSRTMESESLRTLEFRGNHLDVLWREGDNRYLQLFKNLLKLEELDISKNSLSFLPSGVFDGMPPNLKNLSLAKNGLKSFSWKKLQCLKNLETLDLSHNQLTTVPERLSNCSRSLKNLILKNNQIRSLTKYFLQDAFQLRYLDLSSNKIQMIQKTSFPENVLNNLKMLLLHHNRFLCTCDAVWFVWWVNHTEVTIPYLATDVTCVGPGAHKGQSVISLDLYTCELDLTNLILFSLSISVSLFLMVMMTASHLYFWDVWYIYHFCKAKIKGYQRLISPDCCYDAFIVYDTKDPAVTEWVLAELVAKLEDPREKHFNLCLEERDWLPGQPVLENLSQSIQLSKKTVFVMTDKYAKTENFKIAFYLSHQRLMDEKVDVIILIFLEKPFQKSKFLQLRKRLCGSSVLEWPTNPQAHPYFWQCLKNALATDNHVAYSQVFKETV
# assay_overview: TLR7 cellular reporter assay (HEK293, NFκB-luc)
# Format: cell-based
# condition_set: HEK293 transiently transfected with TLR7 and NFκB-luc; 6 hours incubation; lowest effective concentration
# if measured Human TLR 7 (LEC) < 0.9 µM: rule met  # else: rule not met

- compound: "CCCCNc1nc(N)ncc1Cn1cccc(F)c1=O [Compound 6]"
  qualitative_label: "rule not met"
- compound: "CCCCNc1nc(N)ncc1Cn1cc(C)ccc1=O [Compound 3]"
  qualitative_label: "rule met"
- compound: "CCCCNc1nc(N)ncc1Cn1ccc(C(F)(F)F)cc1=O [Compound 7]"
  qualitative_label: "rule met"
- compound: "CCCCNc1nc(N)ncc1Cn1ccccc1=O [Compound 1]"
  qualitative_label: "rule not met"
- compound: "CCCCCNc1nc(N)ncc1Cn1ccccc1=O [Compound 8]"
  qualitative_label: "rule not met"

In the record for CCCCNc1nc(N)ncc1Cn1ccc(C)cc1=O [Compound 4] , is Human TLR 7 (LEC) less than 0.9 µM?
rule met

Proceed to CCCCNc1nc(N)ncc1Cn1c(C)cccc1=O [Compound 2]
rule not met

Proceed to CCCCCCNc1nc(N)ncc1Cn1ccccc1=O [Compound 9]
rule not met

Proceed to CCCCC(C)Nc1nc(N)ncc1Cn1ccccc1=O (centres unmarked) [Compound 10]
rule not met

Proceed to CCCC(C)Nc1nc(N)ncc1Cn1ccccc1=O (centres unmarked) [Compound 11]
rule not met
